B1: STK38L (parent)
chain: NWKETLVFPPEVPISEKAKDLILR

# Variants of: B1
# measurement.description: protein stability index of a GFP-peptide fusion (GPS, HEK-293T) (PSI 1-6); higher = more stable;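 further: lentivirally expressed fusions sorted by FACS into six bins by GFP to DsRed ratio, PSI derived from sequencing read proportions per bin multiplied by bin number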
# recorded.conditions: c terminus: a fixed tail appended
attribute.measured: protein stability index
Enter a number only.

Some solved cases for reference:
L6H	2.61
L6Q	3.87
N1C	3.1
T5D	3.65
A18T	3.41

protein stability index for V7T is 3.33

Lab note: I14D gave protein stability index of 4.44

Record F8V , field protein stability index: 3.75

protein stability index measured on D20G = 2.31

Measured protein stability index of K3Q : 3.77

Kindly note the recorded protein stability index for L21I , which is 3.27

// recorded protein stability index for K3P : 3.71

Note to self: protein stability index recorded for V12R was 3.92
